Where do these numbers come from? They come from patent US20230374025A1.

Biological target: FGFR2 (Homo sapiens, UniProt P21802)
Construct: purchased Carna 08-134
Sequence (P21802 22-821): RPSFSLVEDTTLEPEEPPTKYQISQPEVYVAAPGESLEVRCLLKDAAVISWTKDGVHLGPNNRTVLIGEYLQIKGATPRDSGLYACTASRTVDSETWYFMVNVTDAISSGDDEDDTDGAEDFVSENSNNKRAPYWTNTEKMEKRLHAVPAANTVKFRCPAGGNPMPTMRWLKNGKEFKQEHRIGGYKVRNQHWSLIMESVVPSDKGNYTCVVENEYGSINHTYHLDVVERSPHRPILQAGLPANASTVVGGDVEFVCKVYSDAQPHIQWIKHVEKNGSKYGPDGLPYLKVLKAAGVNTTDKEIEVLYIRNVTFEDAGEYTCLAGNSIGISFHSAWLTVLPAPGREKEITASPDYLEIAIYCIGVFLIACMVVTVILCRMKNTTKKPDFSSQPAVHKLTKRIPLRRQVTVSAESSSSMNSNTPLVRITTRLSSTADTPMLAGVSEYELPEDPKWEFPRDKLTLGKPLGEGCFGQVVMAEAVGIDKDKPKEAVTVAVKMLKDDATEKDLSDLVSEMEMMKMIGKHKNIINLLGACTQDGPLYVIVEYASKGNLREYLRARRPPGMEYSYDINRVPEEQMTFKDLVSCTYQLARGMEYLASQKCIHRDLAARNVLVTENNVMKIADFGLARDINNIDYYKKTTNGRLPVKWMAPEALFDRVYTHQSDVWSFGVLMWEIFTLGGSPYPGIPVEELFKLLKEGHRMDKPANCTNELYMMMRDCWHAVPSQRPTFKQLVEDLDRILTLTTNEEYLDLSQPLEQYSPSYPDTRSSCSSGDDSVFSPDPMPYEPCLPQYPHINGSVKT
Test: Assay II: inhibitory activity against wild-type FGFR (HTRF KinEASE-TK)
Type: biochemical
Conditions: ATP 50 μM, substrate TK 1 μM
observable: IC50 (nM)

Here's what some known entries look like.
CC(Oc1ccc2[nH]nc(-c3nc4c([nH]3)CN(C(=O)N3CCN(C)CC3)C4)c2c1)c1c(Cl)cncc1Cl (centres unmarked) [Compound 1] : 2.9
CC(Oc1ccc2[nH]nc(-c3nc4c([nH]3)CN(C(=O)N3CCOCC3)C4)c2c1)c1c(Cl)cncc1Cl (centres unmarked) [Compound 8] : 2.8
CC(Oc1ccc2[nH]nc(-c3nc4c([nH]3)CN(C(=O)N3CC[C@H](O)C3)C4)c2c1)c1c(Cl)cncc1Cl (some centres unmarked) [Compound 10] : 2.2

[a] CC(Oc1ccc2[nH]nc(-c3nc4c([nH]3)CN(C(=O)N3CCN(C)CC3)CC4)c2c1)c1c(Cl)cncc1Cl (centres unmarked) [Compound 5]
[b] CC(Oc1ccc2[nH]nc(-c3nc4c([nH]3)CN(C)C4)c2c1)c1c(Cl)cncc1Cl (centres unmarked) [Compound 11]
[ask] Which record shows the lower IC50: the first, a , or the second, b ? // output: label of the selected item
[reply] b
(b: 0.95 nM, a: 2.1 nM)
